Please go through the items and note down their CC50.
test system: CCRF-CEM; assay: Cytotoxicity against human CEM cells assessed as reduction in cell growth incubated for 5 days by CellTiter 96 AQueous One Solution cell proliferation assay; type: cell-based; details: ccrf-cem, 120 h
Numbers only, in µM.

Cc1cn([C@H]2C[C@H](N=[N+]=[N-])[C@@H](CO)O2)c(=O)[nH]c1=O    56.1
CCOC(=O)c1c(-c2ccccc2)nc(=O)n(Cc2ccc(C(=O)/C=C(\O)C(=O)OC(C)C)cc2)c1CC    21.4
CCOC(=O)c1c(Cc2ccccc2)nc(=O)n(Cc2ccc(C(=O)/C=C(\O)C(=O)OC(C)C)cc2)c1C    7.3

Continue with the next compound.
**Query** # lookup: CC50 of `CCOC(=O)c1c(CC)nc(SCc2ccc(C(=O)/C=C(\O)C(=O)OC(C)C)cc2)nc1-c1ccc(F)cc1`
**Result** 5.2
